All figures here come from patent US12083124B2.

tested.target: wild-type un-phosphorylated FGFR3 (Homo sapiens)
Sequence (P22607 23-806): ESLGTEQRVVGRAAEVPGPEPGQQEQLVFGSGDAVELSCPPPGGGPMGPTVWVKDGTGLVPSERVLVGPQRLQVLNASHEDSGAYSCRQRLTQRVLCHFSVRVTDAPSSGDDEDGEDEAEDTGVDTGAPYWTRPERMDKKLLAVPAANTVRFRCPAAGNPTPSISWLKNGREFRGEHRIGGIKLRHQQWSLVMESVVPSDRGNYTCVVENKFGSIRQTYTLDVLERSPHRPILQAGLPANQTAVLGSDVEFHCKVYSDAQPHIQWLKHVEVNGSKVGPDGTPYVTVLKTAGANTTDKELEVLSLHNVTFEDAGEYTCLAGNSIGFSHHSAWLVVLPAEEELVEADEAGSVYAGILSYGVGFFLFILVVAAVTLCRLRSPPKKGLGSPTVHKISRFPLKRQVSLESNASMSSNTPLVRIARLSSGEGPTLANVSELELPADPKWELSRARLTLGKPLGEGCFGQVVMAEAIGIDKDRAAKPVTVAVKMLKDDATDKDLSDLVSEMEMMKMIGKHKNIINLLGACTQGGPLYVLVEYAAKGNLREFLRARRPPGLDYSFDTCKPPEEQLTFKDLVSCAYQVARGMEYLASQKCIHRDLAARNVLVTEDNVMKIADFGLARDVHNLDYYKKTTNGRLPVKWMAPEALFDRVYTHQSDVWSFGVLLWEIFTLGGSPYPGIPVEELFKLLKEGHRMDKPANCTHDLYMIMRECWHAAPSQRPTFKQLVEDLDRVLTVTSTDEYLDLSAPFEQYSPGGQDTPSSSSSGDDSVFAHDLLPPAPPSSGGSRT
experiment: FGFR Enzymatic Assay (FRET peptide phosphorylation), FGFR3
conditions: read-out: FGFR3; wild-type un-phosphorylated FGFR3; pre-incubated for 4 hours
pIC50: −log10 of the molar value.
observed.property: pIC50

The examples below pair each entry with its known result.
INSERT INTO results (molecule, measured) VALUES
  ('COc1cc2[nH]nc(-c3cnn(C)c3)c2nc1-c1cccc2c1CCC2O (single isomer, unassigned)', '> 8.22'),
  ('COc1cc2[nH]nc(-c3ccc(C4CC(=O)N(C)C4)nc3)c2nc1-c1cccc2c1CCC2C#N (single isomer, unassigned)', '> 8.22');

For the next question, use this molecule.
Dear colleague, I am looking for the recorded pIC50 of the following molecule: COc1cc2[nH]nc(-c3ccc(C4CCN(C(=O)CO)C4)nc3)c2nc1-c1cccc2c1CCC2 (single isomer, unassigned)
> 8.22
